Documented pEC50 across a set of compounds
Test target: UniProt Q96RI1
Measurement description: transient human FXR/Gal4-luciferase reporter assay
Type: cell-based
Run conditions: Gal4-hFXR fusion construct, HEK293 reporter cells; response relative to 8 μM GW-4064
Entry type: numeric. Quantity: pEC50, the -log10 of concentration in molar units.

Completed entries (count: 2):
{"Test smiles": "CC(C)(C)NC(=O)N(CC12CCC(c3noc(C(F)(F)F)n3)(CC1)CC2)c1cccc(-c2ccc(OC(F)F)cc2)c1", "pEC50": 7.19}
{"Test smiles": "CC(C)(F)c1nc(C23CCC(CN(C(=O)OC4CCC(F)(F)CC4)c4cc(-c5ccc(OC(F)F)cc5)c(F)cn4)(CC2)CC3)no1", "pEC50": 6.93}

Endpoint output: pEC50 of `Cc1cnn2c(-c3cccc(N(CC45CCC(c6nc(C7CC7)no6)(CC4)CC5)C(=O)C45CC(F)(C4)C5)c3)cnc2c1` . Value? 6.79

* * *

Test target: FXR (Homo sapiens (Human), UniProt Q96RI1)
Sequence (Q96RI1 262-486): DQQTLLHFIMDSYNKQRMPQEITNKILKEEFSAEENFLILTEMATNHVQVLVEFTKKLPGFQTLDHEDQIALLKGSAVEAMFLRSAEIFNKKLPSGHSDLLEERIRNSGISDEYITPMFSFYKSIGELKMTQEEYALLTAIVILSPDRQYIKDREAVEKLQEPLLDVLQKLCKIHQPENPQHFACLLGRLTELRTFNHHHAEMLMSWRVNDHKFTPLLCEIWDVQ
Measurement description: transient human FXR/Gal4-luciferase reporter assay
Format: cell-based
Measure: EC50 (µM)
Please give a number only; it is taken to be in µM.

Completed entries (count: 5):
{"Molecule": "CCOc1ccc(-c2cccc(N(CC34CCC(c5ccc(C(F)(F)F)cn5)(CC3)CC4)C(=O)C34CC(F)(C3)C4)c2)cc1 [Example 489]", "Measure": "EC50", "Meas value": 1.64}
{"Molecule": "CC(C)(C)c1noc(C23CCC(CN(C(=O)C45CC(F)(C4)C5)c4cncc(-c5cnc(C6CC6)nc5)c4)(CC2)CC3)n1 [Example 473]", "Measure": "EC50", "Meas value": 0.501}
{"Molecule": "CC1(O)CC(C(=O)N(CC23CCC(c4noc(C(C)(C)C)n4)(CC2)CC3)c2cccc(-c3ccc(OC(F)F)cc3)c2)C1 (stereo not drawn) [Example 517]", "Measure": "EC50", "Meas value": 0.255}
{"Molecule": "O=C(N(CC12CCC(c3ccc(C(F)(F)F)cn3)(CC1)CC2)c1cccc(-c2cnc(C3CC3)nc2)c1)C12CC(F)(C1)C2 [Example 490]", "Measure": "EC50", "Meas value": 0.334}
{"Molecule": "O=C(N(CC12CCC(c3noc(C(F)F)n3)(CC1)CC2)c1cccc(-c2cnc(C3CC3)nc2)c1)C12CC(F)(C1)C2 [Example 463]", "Measure": "EC50", "Meas value": 0.215}

Kindly review the next molecule as well.
Endpoint output: EC50 of CC(F)(F)c1nc(C23CCC(CN(C(=O)C45CC(F)(C4)C5)c4cccc(-c5cnc6nc(C7CC7)sc6c5)c4)(CC2)CC3)no1 [Example 530] . Value? 0.145

Entry source: patent US11254663B2
